So I've got a bunch of binders here, and I need their Kd values.
# experimental-system: T1, CD137-Fc-His6 fusion protein
# T1 construct: Made in HEK293 cells, IMAC purified; also called CD137 target protein
# assay: biolayer interferometry (ForteBio), CD137-Fc-His6 immobilized via protein A, steady state fit
One number for each entry, in nM.

Batch lookup, Kd per entry.
1. SEQ ID NO 52 (designed binder, E. coli, IMAC and HPLC purified) MGSWVEFANRLWAIDQRLFALGGSEAELAAFEKEIAAFESELQAYKGKGNPEVEHLRDQAAFIRHKLQAYRHNGGGGSHHHHHH
2. SEQ ID NO 53 (designed binder, E. coli, IMAC and HPLC purified) MGSWYEFRHRLWAIDQRLYALGGSEAELAAFEKEIAAFESELQAYKGKGNPEVEGLREAAAFIRAKLQAYRHNGGGGSHHHHHH
3. SEQ ID NO 57 (designed binder, E. coli, IMAC and HPLC purified) MGSWYEFHYRLHAIDQRLYALGGSEAELAAFEKEIAAFESELQAYKGKGNPEVEELRIKAAFIRDRLQAYRHNGGGGSHHHHHH

OUT:
1. 460
2. 140
3. 1000

Batch lookup, Kd per entry.
1. SEQ ID NO 51 (designed binder, E. coli, IMAC and HPLC purified) MGSWVEFGHRLWAIDQRLYALGGSEAELAAFEKEIAAFESELQAYKGKGNPEVEKLRQRAAFIRFRLQAYRHNGGGGSHHHHHH
2. SEQ ID NO 54 (designed binder, E. coli, IMAC and HPLC purified) MGSWYEFSMRLWAIDQRLYALGGSEAELAAFEKEIAAFESELQAYKGKGNPEVEALRAKAAYIRWKLQAYRHNGGGGSHHHHHH

OUT:
[640, 400]
